# TEST TARGET: CDK2/cycline E (Homo sapiens)
# ASSAY SUMMARY: CDK2/cyclineE Flashplate test in 96-well format
# IC50 per record follows

Here are 2 compounds together with their reported answers.
LINE NOTATION | IC50
O=C(NOc1ccccc1)c1cc2c(-c3cc4ccccc4[nH]3)n[nH]c2s1 | < 100 nM
O=C(Nc1n[nH]c2sc(C(=O)NOc3ccccc3)cc12)c1cccs1 | < 500 nM

Now for the compound whose IC50 we want.
Q: I am curious: what IC50 value has been reported for O=C(NOc1ccccc1)c1cc2c(/C=C/c3ccccc3)n[nH]c2s1 ?
A: 522 nM

###

# TEST TARGET: human Tie2 (Homo sapiens, UniProt Q02763)
# Construct: amino acids of the intracellular domain 776-1124; made in house; host or cells: baculovirus expression (pFastBacGT vector)
# Sequence (Q02763 776-1124): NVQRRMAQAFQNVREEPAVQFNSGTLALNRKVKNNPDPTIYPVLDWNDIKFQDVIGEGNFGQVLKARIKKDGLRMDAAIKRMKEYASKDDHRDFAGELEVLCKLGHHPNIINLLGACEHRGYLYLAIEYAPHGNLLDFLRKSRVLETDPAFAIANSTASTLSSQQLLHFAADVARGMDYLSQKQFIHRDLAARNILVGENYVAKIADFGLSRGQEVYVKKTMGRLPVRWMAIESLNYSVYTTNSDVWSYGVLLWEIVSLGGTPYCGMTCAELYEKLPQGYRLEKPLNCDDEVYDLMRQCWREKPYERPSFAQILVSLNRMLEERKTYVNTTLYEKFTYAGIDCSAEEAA
# ASSAY SUMMARY: Test of phosphorylation of PLC with Tie2 (GST-Tie2)
# Format: biochemical
VALUE TYPE: IC50

Q: Quick one: IC50 for O=C(Nc1n[nH]c2sc(C(=O)NOc3ccccc3)cc12)c1cccs1 ?
A: < 500 nM
